Hey, just so you know, these numbers are from the supplement of paper PMC9233669.

# Tested on: biotinyl-Phe-oxazolone
# Experimental Details: self-aminoacylation, catalytic enhancement (BFO) (fold over background); higher = more active; k-Seq, kA / k0A0; sequences stand for … in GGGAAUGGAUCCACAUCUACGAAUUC…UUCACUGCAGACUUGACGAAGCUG
This sample holds only a part of the variants without activity.
# if value of self-aminoacylation reaches 2, tag Satisfied; if it stays below, tag Not satisfied

Some solved entries appear below for comparison.
AAGUUUGCUAGUAGUCGCAGG [Fam3.1 aminoacylation ribozyme variant] ... Satisfied
AUUACCCUGAUCAUCCAGUGA [Fam2.1 aminoacylation ribozyme variant] ... Satisfied
CCACUCUUCAGGCAAUCGGUC [Fam1B.1 aminoacylation ribozyme variant] ... Not satisfied

Problem: // inclusive: self-aminoacylation at least 2? input: CUACUUCAAACAAUCCGUCUC [Fam1A.1 aminoacylation ribozyme variant]
Solution: Not satisfied

Problem: And for AUACUUCAAACAAUCGGUCUA [Fam1A.1 aminoacylation ribozyme variant] ?
Solution: Satisfied
